The reported numbers originate from patent US20240327502A1.

Recorded PRNT IC50, one value per entry.
# Substrate: F protein of hMPV B virus (human metapneumovirus subtype B)
# TEST_DETAILS: cell-based or functional assay

[
  {
    "BINDER": "M3C07 (antibody, V domains shown) VH: QLQLQESGPGLVKPWETLSLTCIVSGGSISRSTHYWGWIRQSPEMGLEWIGSIYYTGNTYYNPSFKSRVTISVDTSRNQLSLRVNSVSAADTARYYCARHETYDYGVFNIWGQGAMVTVSA VL: EIVLTQSPGTLSLSPGERAILSCRASQTVSSDYLAWYQQRPGQAPRLLIYDASSRATGVPDRFRGSGSGTDFTLTISRLEPEDFGVYYCQQYGSPYTFGQGTKLEIK",
    "CENSORING_SIGN": ">",
    "PRNT IC50, µg/mL": 10
  },
  {
    "BINDER": "M2A09 (antibody, V domains shown) VH: QVQLVQSGAGVRKPGSSVKVSCKASGGTFSNYIISWVRQAPGQGLEYIGRIIPIVGMEKYEEKFQGRVKITADESTSTVSMELTSLKSEDTATYYCATEGLESGYPPYLEHWGRGTLVIVSS VL: EIVLTQSPGTLSLSPGERATLSCRTSQTVGAHLAWYQQKPGQSPRLLIYGASSRATGIPDRFSGSGSGTVFTLTINRLEPEDLAVYYCQQYGASPPTFGQGTKVEIK",
    "CENSORING_SIGN": "=",
    "PRNT IC50, µg/mL": 0.0456
  }
]
